Hi there, I'd appreciate the recorded viability at 1 µM for every entry that follows.
# Test system: human breast cancer cell line ZR-75-1
# assay_remarks: Assay for cell growth inhibitory activity (3D hydrogel culture, CCK-8)
# Format: cell-based
# condition_set: ZR-75-1, 1000 nM, 96 h, read-out: Cell survival rate at example drug concentration 1000 nM
Answers are plain numbers, in %.

// below: answered compounds
chem_smiles: COc1nc(Cn2cccn2)cc2onc(NS(=O)(=O)c3cccc4c3ccn4C)c12
target_of_assay: human breast cancer cell line ZR-75-1
measure_name: viability at 1 µM
unit_symbol: %
measured_value: 25
//
chem_smiles: COc1cc2c(cc1S(=O)(=O)Nc1noc3cc(Cn4cccn4)nc(OC)c13)CCCC2
target_of_assay: human breast cancer cell line ZR-75-1
measure_name: viability at 1 µM
unit_symbol: %
measured_value: 40
//
chem_smiles: COc1nc(Cn2cccn2)cc2onc(NS(=O)(=O)c3cccc4c3OCC4)c12
target_of_assay: human breast cancer cell line ZR-75-1
measure_name: viability at 1 µM
unit_symbol: %
measured_value: 30

Next:
COc1ccc2ccoc2c1S(=O)(=O)Nc1noc2cc(Cn3cccn3)nc(OC)c12 has a reported viability at 1 µM of 29
